Target: GRK2 (Bos taurus, UniProt P21146, S670A)
Construct: made in house
Sequence (P21146 1-689 S670A): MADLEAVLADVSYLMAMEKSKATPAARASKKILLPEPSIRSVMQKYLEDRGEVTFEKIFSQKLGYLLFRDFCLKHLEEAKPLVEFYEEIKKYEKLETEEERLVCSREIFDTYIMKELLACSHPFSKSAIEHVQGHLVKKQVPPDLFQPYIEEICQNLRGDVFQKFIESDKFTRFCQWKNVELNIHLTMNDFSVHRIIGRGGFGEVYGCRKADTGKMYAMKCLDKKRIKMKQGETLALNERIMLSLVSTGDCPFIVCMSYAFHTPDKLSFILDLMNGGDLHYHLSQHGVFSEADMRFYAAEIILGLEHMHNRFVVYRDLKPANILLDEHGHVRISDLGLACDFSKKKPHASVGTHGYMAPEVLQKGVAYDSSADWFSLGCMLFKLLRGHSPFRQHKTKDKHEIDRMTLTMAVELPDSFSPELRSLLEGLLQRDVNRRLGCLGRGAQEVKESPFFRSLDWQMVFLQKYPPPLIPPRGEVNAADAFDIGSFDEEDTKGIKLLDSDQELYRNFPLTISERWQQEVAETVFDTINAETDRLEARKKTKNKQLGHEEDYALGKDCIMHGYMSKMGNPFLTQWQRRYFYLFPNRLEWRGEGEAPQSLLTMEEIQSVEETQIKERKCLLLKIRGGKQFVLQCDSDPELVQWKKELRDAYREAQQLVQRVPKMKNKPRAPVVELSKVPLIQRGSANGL
Assay: In vitro phosphorylation assay (tubulin, 5 μM ATP), GRK2
Format: biochemical, bovine
Conditions: read-out: GRK2 log IC50 (converted)
Here, each record is paired with measured IC50 data.
For clarity, give the value followed by its unit.

Reference set, count: 2
- COMPOUND: "CCCN1CCC(c2ccc(Nc3nc(Nc4cc(F)ccc4C(N)=O)c4cc[nH]c4n3)c(OC)c2)CC1 [GSK1326255A]"
  VALUE_REPORTED: "7.94 µM"
- COMPOUND: "CC1=C(C(=O)Nc2ccc3[nH]ncc3c2)C(c2ccc(F)cc2)NC(c2ccc(C(F)(F)F)nc2)=N1 (stereo not drawn) [GSK317354A]"
  VALUE_REPORTED: "2.51 µM"

From here, focus on the item given below.
query: # get_value(readout= IC50, system= GRK2 (Bos taurus, UniProt P21146, S670A)) for Fc1cccc(COc2ccc(Nc3ncnc4cc(-c5ccc[nH]5)sc34)cc2Cl)c1 [GW693881A]
result: 200 µM

====

Molecular target: PKA (Mus musculus)
Construct: His tag (inferred from pET15b vector and Ni-NTA column) (N); host or cells: E. coli Rosetta(DE3)pLysS
Test: PKA inhibition assay (ADP-Glo, CREBtide, 100 μM ATP)
Format: biochemical
Conditions: read-out: IC50 against PKA
Here, each record is paired with measured IC50 data.

- COMPOUND: "CC1=C(C(=O)Nc2ccc3[nH]ncc3c2)C(c2ccc3ccccc3c2)CC(=O)N1 (stereo not drawn) [GSK270822A]"
  RECORDED_ENDPOINT: "IC50"
  VALUE_REPORTED: "< 100 µM"

query: # get_value(readout= IC50, system= PKA (Mus musculus)) for CC1=C(C(=O)Nc2ccc3[nH]ncc3c2)C(c2ccc(Cl)c(Cl)c2)CC(=O)N1 (stereo not drawn) [GSK299115A]
result: < 100 µM

query: # get_value(readout= IC50, system= PKA (Mus musculus)) for CC1=C(C(=O)Nc2cc(Cl)c3[nH]ncc3c2)C(c2ccc(C(F)(F)F)cc2)CC(=O)N1 (stereo not drawn) [GSK466317A]
result: < 100 µM

====

Target: GRK2 (Bos taurus, UniProt P21146, S670A)
Construct: made in house
Sequence (P21146 1-689 S670A): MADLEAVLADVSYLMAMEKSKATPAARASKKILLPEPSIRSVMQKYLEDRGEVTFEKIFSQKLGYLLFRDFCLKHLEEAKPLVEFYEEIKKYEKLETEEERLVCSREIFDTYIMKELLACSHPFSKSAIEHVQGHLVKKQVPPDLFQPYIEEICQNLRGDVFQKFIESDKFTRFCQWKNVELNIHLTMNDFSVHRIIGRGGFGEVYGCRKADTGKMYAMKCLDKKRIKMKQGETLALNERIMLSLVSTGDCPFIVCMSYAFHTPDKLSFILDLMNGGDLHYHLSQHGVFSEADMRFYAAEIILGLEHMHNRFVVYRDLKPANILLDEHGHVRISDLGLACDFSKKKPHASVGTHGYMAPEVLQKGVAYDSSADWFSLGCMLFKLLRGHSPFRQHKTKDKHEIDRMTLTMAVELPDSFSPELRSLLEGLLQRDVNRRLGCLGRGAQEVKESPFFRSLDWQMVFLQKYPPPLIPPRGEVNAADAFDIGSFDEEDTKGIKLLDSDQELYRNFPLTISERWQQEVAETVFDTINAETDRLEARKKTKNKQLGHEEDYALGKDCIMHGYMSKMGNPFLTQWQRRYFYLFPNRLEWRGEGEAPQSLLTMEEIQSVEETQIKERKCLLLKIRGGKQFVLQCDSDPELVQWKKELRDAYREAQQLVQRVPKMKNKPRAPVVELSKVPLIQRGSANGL
Assay: In vitro phosphorylation assay (tubulin, 5 μM ATP), GRK2
Format: biochemical, bovine
Settings: read-out: GRK2 log IC50 (converted)
Here, each record is paired with measured IC50 data.
# number only, unit µM dropped from output

query: Need IC50, item CCCN1CCC(Oc2cc(Nc3nc(Nc4cccc(F)c4C(N)=O)c4cc[nH]c4n3)c(OC)cc2Cl)CC1 [GSK1713088A]
result: 6.31

query: Need IC50, item COc1cc2c(cc1Nc1nc(Nc3ccsc3C(N)=O)c3cc[nH]c3n1)N(C(=O)CN(C)C)CCC2 [GSK2110236A]
result: 20

query: Need IC50, item CCn1c(-c2nonc2N)nc2c(C#CC(C)(C)O)nc(O[C@@H](CN)c3ccccc3)cc21 [GSK1007102B]
result: 1

query: Need IC50, item CNC(=O)c1ncccc1Nc1nc(Nc2cc3c(cc2OC)CCCN3C(=O)CN(C)C)nc2[nH]ccc12 [GSK2220400A]
result: 200

query: Need IC50, item CC1=C(C(=O)Nc2ccc3[nH]ncc3c2)C(c2ccc(Cl)c(Cl)c2)CC(=O)N1 (stereo not shown) [GSK299115A]
result: 3.16

====

Target: GRK2 (Homo sapiens, UniProt P25098, S670A)
Construct: made in house
Sequence (P25098 1-689 S670A): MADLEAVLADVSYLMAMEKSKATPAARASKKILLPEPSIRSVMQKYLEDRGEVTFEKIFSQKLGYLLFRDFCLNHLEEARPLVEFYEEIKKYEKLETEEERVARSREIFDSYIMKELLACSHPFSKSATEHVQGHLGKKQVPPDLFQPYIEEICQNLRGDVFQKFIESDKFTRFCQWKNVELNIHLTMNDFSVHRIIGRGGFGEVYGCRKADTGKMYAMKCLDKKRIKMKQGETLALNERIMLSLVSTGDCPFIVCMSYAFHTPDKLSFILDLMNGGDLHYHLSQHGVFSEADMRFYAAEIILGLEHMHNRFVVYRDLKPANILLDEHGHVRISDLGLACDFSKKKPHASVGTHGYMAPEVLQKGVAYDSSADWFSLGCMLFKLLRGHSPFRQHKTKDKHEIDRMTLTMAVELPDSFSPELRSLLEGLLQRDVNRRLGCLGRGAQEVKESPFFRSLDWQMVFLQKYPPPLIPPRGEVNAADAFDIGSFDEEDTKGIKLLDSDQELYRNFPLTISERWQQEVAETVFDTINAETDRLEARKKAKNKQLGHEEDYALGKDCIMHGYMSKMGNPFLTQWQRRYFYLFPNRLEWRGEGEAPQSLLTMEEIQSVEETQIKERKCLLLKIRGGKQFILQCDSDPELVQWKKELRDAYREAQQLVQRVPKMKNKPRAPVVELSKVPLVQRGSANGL
Assay: DSF retest (confirmation), GRK2
Type: binding
Conditions: relative to intrinsic melting point of the kinase
Binned GRK2 ΔTm; ranges: c1 = under 3 °C, c2 = from 3 °C up to 10 °C, c3 = 10 °C and over

These recorded examples may help you get a feel for the data.
- COMPOUND: "CCn1c(-c2nonc2N)nc2c(C#CC(C)(C)O)nc(O[C@@H](CN)c3ccccc3)cc21 [GSK1007102B]"
  QUALITATIVE_LABEL: "c3"
- COMPOUND: "CC1=C(C(=O)Nc2ccc3[nH]ncc3c2)C(c2ccc3ccccc3c2)CC(=O)N1 (stereo not drawn) [GSK270822A]"
  QUALITATIVE_LABEL: "c3"
- COMPOUND: "CC1=C(C(=O)Nc2cc(Cl)c3[nH]ncc3c2)C(c2ccc(C(F)(F)F)cc2)CC(=O)N1 (stereo not drawn) [GSK466317A]"
  QUALITATIVE_LABEL: "c2"
- COMPOUND: "CC(C)COC(=O)c1ccc2c(c1)/C(=C/Nc1ccc(S(N)(=O)=O)cc1)C(=O)N2 [GW416981X]"
  QUALITATIVE_LABEL: "c1"
- COMPOUND: "CC1=C(C(=O)Nc2ccc3[nH]ncc3c2)C(c2ccc(Cl)c(Cl)c2)CC(=O)N1 (stereo not drawn) [GSK299115A]"
  QUALITATIVE_LABEL: "c3"

query: Assign a category based on measured GRK2 ΔTm for CC1=C(C(=O)Nc2ccc3[nH]ncc3c2)C(c2ccc(F)cc2)NC(c2ccc(C(F)(F)F)nc2)=N1 (stereo not drawn) [GSK317354A] and give only the class name.
result: c3

query: Assign a category based on measured GRK2 ΔTm for CNC(=O)c1ncccc1Nc1nc(Nc2cc3c(cc2OC)CCCN3C(=O)CN(C)C)nc2[nH]ccc12 [GSK2220400A] and give only the class name.
result: c1

query: Assign a category based on measured GRK2 ΔTm for CCCN1CCC(Oc2cc(Nc3nc(Nc4cccc(F)c4C(N)=O)c4cc[nH]c4n3)c(OC)cc2Cl)CC1 [GSK1713088A] and give only the class name.
result: c2

query: Assign a category based on measured GRK2 ΔTm for Fc1cccc(COc2ccc(Nc3ncnc4cc(-c5ccc[nH]5)sc34)cc2Cl)c1 [GW693881A] and give only the class name.
result: c1

query: Assign a category based on measured GRK2 ΔTm for CCCN1CCC(c2ccc(Nc3nc(Nc4cc(F)ccc4C(N)=O)c4cc[nH]c4n3)c(OC)c2)CC1 [GSK1326255A] and give only the class name.
result: c2
